The measurements presented in this section are drawn from paper PMC12196007.

test-protocol: In situ single-pass intestinal perfusion
Assay type: in vivo, Sprague–Dawley (SD) rats
details: both sexes, Sprague-Dawley, rat, other: in situ single-pass intestinal perfusion, duodenum; read-out: Peff (effective permeability coefficient)
quantity-measured: Papp (nm/s)
API: value field is a number in nm/s; no unit string.

# input Which value of Papp has been reported for COc1cc(/C=C/C(=O)CC(=O)/C=C/c2ccc(O)c(OC)c2)ccc1O in the records?
# output 272

----------
test-protocol: In vivo pharmacokinetic study, oral gavage
Design: species or system SD rats
details: both sexes, Sprague-Dawley, rat, plasma, po, 50 mg/kg
Method: The analysis was performed on a Q Exactive™ hybrid quadrupole-Orbitrap™ mass spectrometer (Thermo Fisher Scientific, USA) with the following parameters: Chromatographic separation was achieved by Agilent ZORBAX SB-C18 column (150 mm × 4.6 mm, 5 μm) with a mobile phase of acetonitrile and 0.1% formic acid aqueous solution (48:52, v/v) at a flow rate of 1 mL·min^−1 while maintaining the column temperature at 30 °C. […]
quantity-measured: AUC(0-t) (ng·h/mL)
The answer is to be given in ng·h/mL; state only the numeric part.

# input If you can, please state the reported AUC(0-t) value of COc1cc(/C=C/C(=O)CC(=O)/C=C/c2ccc(O)c(OC)c2)ccc1O .
# output 106
